These entries and their values trace back to patent US20240101546A1.

Test system: hepatocellular carcinoma cell line Hub-7
Test: Cell proliferation assay, Hub-7 (CELL-TITER GLO)
Assay type: cell-based
Details: Hub-7 cells, 24 h incubation, cell viability by CELL-TITER GLO, top concentration 10 μM; read-out: EC50, Inhibition of Hub-7 Cell Proliferation
Description: The activity of a compound was determined in a cell proliferation assay using the hepatocellular carcinoma cell line Hub-7. Cells (4,000 cells per well) were seeded in a 96-well tissue culture plate. […] After the cells were incubated for 24 h, cell viability was determined using a CELL-TITER GLO® assay. The CELL-TITER GLO® reagent (50 μL) was added to each well and the luminescence was measured by a multimode microplate reader after a brief period of shaking. […]
pEC50: −log10 of the molar value.
reported.metric: pEC50

Quick check: pEC50 of C#Cc1nc(C(=O)NCc2ccc(-c3ccn(C)n3)cc2)cs1 [Compound C54] ?
6.00 to 6.70

Quick check: pEC50 of C#Cc1nc(C(=O)NCCc2ccc(-c3cncc4ncsc34)cc2)cs1 [Compound C19] ?
6.00 to 6.70

Quick check: pEC50 of C#Cc1nc(C(=O)NCc2ccc(N)cc2)cs1 [Compound C118] ?
6.00 to 6.70

Quick check: pEC50 of C#Cc1nc(C(=O)N2CCN(c3ccc(-c4cccc5[nH]ncc45)cc3)CC2)cs1 [Compound D25] ?
≥ 6.70

Quick check: pEC50 of C#Cc1nc(C(=O)N[C@H](C)c2cccc(Cl)c2)cs1 [Compound C67] ?
5.30 to 6.00

Quick check: pEC50 of C#Cc1nc(C(=O)NCCc2ccc(-c3cccc4cnccc34)cc2)cs1 [Compound C21] ?
≥ 6.70

Quick check: pEC50 of C#Cc1nc(C(=O)N2CCN(c3ccc(-c4cc(C(=O)OC)cc5c4cnn5C)cc3)CC2)cs1 [Compound D2] ?
≥ 6.70

Quick check: pEC50 of C#Cc1nc(NC(=O)c2ccc3ccccc3n2)cs1 [Compound E10] ?
5.30 to 6.00

Quick check: pEC50 of C#Cc1nc(C(=O)N2CCC(c3ccc(-c4cccc5c4cnn5C)cc3)CC2)cs1 [Compound D20] ?
≥ 6.70
